method: reversal of MRP1-mediated doxorubicin resistance, pilot screen, H69AR cells, doxorubicin co-treatment (AID 601)
applied.conditions: H69AR cells + 2 uM doxorubicin, CellTiter-Glo, 72 h; measured here: viability with 2 uM doxorubicin; at 10 µM; stronger effect = lower value
Property: viability; scope: individual molecules
Entry rule: numbers only, all in %.

Some molecules with known viability results, for comparison:
COCCCNC(=O)C1CCN(C(=O)Nc2ccc(Cl)cc2)CC1
87.4
Cc1ccc(C)c(-n2c(Cc3cc(=O)[nH]c(=O)[nH]3)nnc2SCC(=O)NCc2ccco2)c1
89

input: Fill in: viability of `COc1ccccc1N1CCN(C(=O)CSc2nc3ncnc(N)c3[nH]2)CC1` is ___
output: 89.3

input: Fill in: viability of COc1ccccc1N1CCN(C(CNS(=O)(=O)c2cc(F)ccc2F)c2cccnc2)CC1 (centres undefined) is ___
output: 90.2

###

Property: inhibition; scope: individual compounds
method: growth suppression of yeast trafficking mutant, preliminary HTS, modulators of trafficking downstream of Golgi apparatus project, 1536-format plate, OD 615 nm (AID 637)
applied.conditions: yeast transport mutant growth, absorbance 615 nm, 18 h; stronger effect = higher value
Entry rule: numbers only, all in %.

CCc1nnc(NC(=O)CSc2nc(-c3ccc(OC)cc3)ns2)s1
0.91
O=S(=O)(NC1CCCCC1NS(=O)(=O)c1ccc(F)cc1)c1ccc(F)cc1 (stereo unspecified)
6.07
Cc1cc2c(c(=O)n1C)C(Cc1ccccc1)C(C#N)=C(N)O2 (stereo unspecified)
2.55

Consider now this further compound.
input: Fill in: inhibition of `Cc1cc(Cl)c(S(=O)(=O)Nc2ccc3c(c2)OCCO3)cc1OCC(N)=O` is ___
output: 4.84

###

Property: viability; scope: individual compounds
method: reversal of MRP1-mediated doxorubicin resistance, pilot screen, H69AR cells, doxorubicin co-treatment (AID 601)
applied.conditions: H69AR cells + 2 uM doxorubicin, CellTiter-Glo, 72 h; measured here: viability with 2 uM doxorubicin; at 10 µM; stronger effect = lower value
Entry rule: numbers only, all in %.

Some compounds with known viability results, for comparison:
Cc1ccc(S(=O)(=O)C2(C(=O)N3CCCCCC3)CC2)cc1
105
Cc1cnc(C(=O)Nc2ccccc2-n2cccc2)cn1
88.6
CCN(CC(=O)NC1CCS(=O)(=O)C1)C(=O)C(c1ccccc1)c1ccccc1 (centres undefined)
88.2

input: Fill in: viability of `CN(C(=O)c1ccccn1)c1nnc(-c2cccnc2)s1` is ___
output: 93.5

input: Fill in: viability of O=C(COC(=O)Cc1cccc(C(F)(F)F)c1)NCC1CCCO1 (centres undefined) is ___
output: 73.5

input: Fill in: viability of O=C(Nc1nc2ccc(S(=O)(=O)N3CCCC3)cc2s1)C1CCCO1 (centres undefined) is ___
output: 93.9

input: Fill in: viability of CN1CC=C2C(C#N)=C(N)C(C#N)(C#N)[C@H](c3cccc(Cl)c3)C2C1 (some centres undefined) is ___
output: 22.1

input: Fill in: viability of O=C1c2ccccc2C(Nc2ccc3c(c2)OCCO3)N1Cc1ccco1 (centres undefined) is ___
output: 103

input: Fill in: viability of `O=C(c1cccs1)c1cn(CC(=O)N2CCc3ccccc3C2)c2ccccc12` is ___
output: 79.5

input: Fill in: viability of `c1ccc(-c2ccc(-c3ccccn3)nn2)nc1` is ___
output: 69.5

input: Fill in: viability of `COc1ccccc1CC(=O)NCc1ccc2c(c1)OCO2` is ___
output: 84.3

input: Fill in: viability of `Cc1nc(Sc2cccn2C)c(C(F)(F)F)c(=O)[nH]1` is ___
output: 83.1

input: Fill in: viability of `COc1ccccc1-n1cnc2cc(NS(=O)(=O)c3ccccc3)ccc21` is ___
output: 87.8

input: Fill in: viability of Cc1ccc2nc3c(cc2c1)CN(Cc1ccco1)C(=NCC1CCCO1)S3 (centres undefined) is ___
output: 9.57
